Consider the following molecules; for each one, report its IC50.
Target sequence: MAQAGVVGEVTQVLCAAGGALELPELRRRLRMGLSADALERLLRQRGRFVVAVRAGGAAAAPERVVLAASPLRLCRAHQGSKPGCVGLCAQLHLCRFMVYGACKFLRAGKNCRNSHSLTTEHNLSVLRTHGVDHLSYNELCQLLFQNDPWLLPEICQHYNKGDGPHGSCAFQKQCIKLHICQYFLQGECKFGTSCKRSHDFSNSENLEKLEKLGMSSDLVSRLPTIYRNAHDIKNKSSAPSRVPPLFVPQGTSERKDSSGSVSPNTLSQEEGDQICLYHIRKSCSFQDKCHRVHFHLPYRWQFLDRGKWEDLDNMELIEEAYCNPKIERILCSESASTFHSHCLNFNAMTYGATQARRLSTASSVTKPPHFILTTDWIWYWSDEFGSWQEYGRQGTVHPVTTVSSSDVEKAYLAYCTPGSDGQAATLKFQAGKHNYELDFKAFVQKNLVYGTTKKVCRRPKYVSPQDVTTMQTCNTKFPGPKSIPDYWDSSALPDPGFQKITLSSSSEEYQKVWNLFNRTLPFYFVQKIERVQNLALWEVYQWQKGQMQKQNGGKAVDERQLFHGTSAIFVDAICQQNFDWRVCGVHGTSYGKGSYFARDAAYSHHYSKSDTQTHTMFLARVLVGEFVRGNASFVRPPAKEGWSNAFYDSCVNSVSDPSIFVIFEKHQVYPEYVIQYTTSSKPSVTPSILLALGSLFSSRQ
Numbers only, in nM.

- molecule: "CNC(=O)c1ccc(N2CCN(C[C@H]3CCc4nc(C)c(=O)[nH]c4C3)CC2)c(F)n1"
  number: 862

Please find the next molecule below.
# IC50 (molecule: CCc1cc2c([nH]c1=O)CC(CN1CCN(c3ccc(C(=O)NC)nc3F)CC1)OC2 (centres unmarked) ) is 1990
